Record form. Attribute: IC50. Fill in for each entry.
- system: PLK2 (h) (Homo sapiens, UniProt Q9NYY3)
- Sequence (Q9NYY3 whole entry): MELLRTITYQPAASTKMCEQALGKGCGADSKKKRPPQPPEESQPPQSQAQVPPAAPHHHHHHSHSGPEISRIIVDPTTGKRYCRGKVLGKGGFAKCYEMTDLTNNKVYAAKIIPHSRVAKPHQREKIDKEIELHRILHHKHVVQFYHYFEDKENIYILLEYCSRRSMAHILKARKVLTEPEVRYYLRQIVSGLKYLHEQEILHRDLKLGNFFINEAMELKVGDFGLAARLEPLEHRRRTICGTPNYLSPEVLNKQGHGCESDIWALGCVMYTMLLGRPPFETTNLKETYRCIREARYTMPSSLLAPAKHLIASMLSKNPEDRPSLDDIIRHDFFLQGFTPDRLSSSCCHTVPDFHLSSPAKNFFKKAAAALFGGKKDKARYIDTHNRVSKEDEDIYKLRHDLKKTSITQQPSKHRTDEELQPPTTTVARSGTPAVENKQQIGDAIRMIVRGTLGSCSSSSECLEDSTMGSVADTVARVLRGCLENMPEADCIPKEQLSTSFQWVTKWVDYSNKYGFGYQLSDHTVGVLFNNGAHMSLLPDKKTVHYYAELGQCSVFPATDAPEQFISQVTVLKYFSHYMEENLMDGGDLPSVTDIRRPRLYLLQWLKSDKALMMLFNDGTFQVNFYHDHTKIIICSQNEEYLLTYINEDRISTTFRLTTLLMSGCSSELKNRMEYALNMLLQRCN
- assay: PLK2 human kinase inhibition, SPA
- Assay type: biochemical
- condition: read-out: PLK2 pIC50 (converted)

Q: Return reported IC50; argument: CC(C)Nc1cc2cc(c1)Nc1nccc(n1)-c1ccc(cc1)CN(C)CCCNC(=O)[C@H](CO)NC2 [Compound 111]
A: > 3.02 µM

Q: # repeat for COCCNCc1cc2cc(c1)Nc1nccc(n1)-c1cccc(c1)CNC(=O)[C@@H]1CCCN1C2 [Compound 33]
A: > 10 µM

Q: What do we get for COc1ccc2cc1CN(C)CCNC(=O)CN1CCN(CC1)Cc1cc(Br)cc(c1)Nc1nccc-2n1 [Compound 50] ?
A: > 10 µM

Q: Now the same for COc1cc2cc(c1OC)CN1CCC[C@H]1C(=O)N(C)CCN(C)c1cc(ccn1)-c1ccnc(n1)N2 [Compound 17]
A: > 10 µM

Q: Also O=C1NCCNc2cc(ccn2)-c2ccnc(n2)Nc2ccc(N3CCOCC3)c(c2)CN2CCCC12 (stereo not shown) [Compound 161] , if possible.
A: > 10 µM

Q: // next record O=C1NCc2cccc(c2)-c2ccnc(n2)Nc2cccc(c2)CN2CCC1CC2 [Compound 124]
A: > 10 µM

Q: Same read-out for CN1CCNC(=O)[C@@H]2CCCN2Cc2cc(cc(N3CCOCC3)c2)Nc2nccc(n2)-c2ccc(cc2)C1 [Compound 154] ?
A: > 3.02 µM

Source: patent US8609836B2
